Kindly supply the reported PBM binding z-score values for the records listed here.
system: LXRa:RXRa (NR concentration 270 nM, RXRa partner concentration 90 nM); test: PBM binding z-score (relative to random genomic background probes); higher = stronger binding; sequences stand for … in GC…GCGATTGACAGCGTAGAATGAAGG
No unit in the answer, please; the number alone is enough.

Notebook: "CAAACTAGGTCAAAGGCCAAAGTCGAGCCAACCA" , PBM binding z-score read as 3.93

The sequence identified as "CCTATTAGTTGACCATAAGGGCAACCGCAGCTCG" registered its PBM binding z-score at 0.581

Lab note: "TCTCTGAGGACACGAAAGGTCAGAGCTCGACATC" gave PBM binding z-score of 3.53

Consider "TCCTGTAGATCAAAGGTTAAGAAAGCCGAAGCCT" . Its measured PBM binding z-score is 2.18

Value of measured PBM binding z-score for the entry "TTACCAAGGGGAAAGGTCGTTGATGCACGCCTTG" : 1.85

In plain terms, "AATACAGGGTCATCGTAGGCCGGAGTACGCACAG" has a documented PBM binding z-score of 6.14

// PBM binding z-score lookup, sequence = "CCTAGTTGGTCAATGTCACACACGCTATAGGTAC" , result: 0.678

Measured PBM binding z-score of "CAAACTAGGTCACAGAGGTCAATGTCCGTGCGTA" : 6.22

The recorded PBM binding z-score for entry "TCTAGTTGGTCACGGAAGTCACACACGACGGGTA" equals 0.526

PBM binding z-score reading for "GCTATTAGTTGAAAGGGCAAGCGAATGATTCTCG" : 0.54

Noted for "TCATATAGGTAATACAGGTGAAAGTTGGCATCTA" : its PBM binding z-score reads 1.59

Note to self: PBM binding z-score recorded for "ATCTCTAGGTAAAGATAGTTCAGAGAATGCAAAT" was 3.56

Just so you know, measured PBM binding z-score for "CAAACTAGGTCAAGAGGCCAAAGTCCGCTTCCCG" came out at 2.84

According to the records, this sequence "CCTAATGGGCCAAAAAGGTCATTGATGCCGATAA" displays PBM binding z-score of 4.14

// sample "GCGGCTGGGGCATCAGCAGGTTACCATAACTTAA" , its PBM binding z-score was -0.215

get_value(item= "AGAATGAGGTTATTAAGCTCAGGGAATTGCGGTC" , readout=PBM binding z-score) returns 1.14

Short answer for "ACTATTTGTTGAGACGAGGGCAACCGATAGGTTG" : PBM binding z-score was 0.535

The sequence "AGAATGAGGTTAAGAACAGGGAAACAGAATACAT" showed PBM binding z-score equal to 1.7

According to the records, this sequence "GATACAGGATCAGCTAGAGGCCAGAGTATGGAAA" displays PBM binding z-score of -0.497

Notebook: "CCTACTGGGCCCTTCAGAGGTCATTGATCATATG" , PBM binding z-score read as 3.83

Lab book: PBM binding z-score of "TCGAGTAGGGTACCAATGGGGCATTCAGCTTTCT" noted as -0.00421

So, "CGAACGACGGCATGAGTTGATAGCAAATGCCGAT" ? Its PBM binding z-score was -1.12

Notebook: "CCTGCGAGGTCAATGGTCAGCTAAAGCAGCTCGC" , PBM binding z-score read as 5.25

The value of PBM binding z-score measured for the sequence "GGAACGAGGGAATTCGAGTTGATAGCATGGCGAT" turned out to be -0.535

Quick note, PBM binding z-score for "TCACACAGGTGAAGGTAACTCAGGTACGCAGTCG" landed at 2.02

// recorded PBM binding z-score for "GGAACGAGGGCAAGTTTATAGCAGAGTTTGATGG" : 0.332

The reported value for "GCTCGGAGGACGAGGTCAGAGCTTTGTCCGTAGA" in terms of PBM binding z-score is 1.6

Just so you know, measured PBM binding z-score for "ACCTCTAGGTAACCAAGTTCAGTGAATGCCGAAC" came out at 0.537

# PBM binding z-score of "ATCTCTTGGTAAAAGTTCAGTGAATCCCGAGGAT" = 1.23

Consider "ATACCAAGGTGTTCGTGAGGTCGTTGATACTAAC" . Its measured PBM binding z-score is 2.11

"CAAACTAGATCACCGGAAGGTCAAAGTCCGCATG" has a reported PBM binding z-score of 3.21

----------
tested on: VDR:RXRa (NR concentration 270 nM, RXRa partner concentration 90 nM); assay: PBM binding z-score (relative to random genomic background probes); higher = stronger binding; sequences stand for … in GC…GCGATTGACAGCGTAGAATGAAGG
Please use Condition met whenever PBM binding z-score is not below 0.8, and Condition not met whenever it is.

Q. Please check the record "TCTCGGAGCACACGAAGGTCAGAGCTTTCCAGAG" and state if its PBM binding z-score is at or above 0.8.
A. Condition not met

Q. Can "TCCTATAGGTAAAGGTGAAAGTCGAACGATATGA" be said to have PBM binding z-score at or above 0.8?
A. Condition met

Q. Decide: PBM binding z-score of "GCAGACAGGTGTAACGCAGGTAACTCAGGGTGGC" >= 0.8?
A. Condition not met

Q. Is it the case that "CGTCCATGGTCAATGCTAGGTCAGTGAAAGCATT" has PBM binding z-score reaching or exceeding 0.8?
A. Condition not met

Q. Has "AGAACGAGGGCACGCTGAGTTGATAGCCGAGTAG" a recorded PBM binding z-score greater than or equal to 0.8?
A. Condition met

Q. Quick check: does "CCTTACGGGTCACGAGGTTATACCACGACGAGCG" have PBM binding z-score greater than or equal to 0.8?
A. Condition met

Q. Please tell me: is the sequence "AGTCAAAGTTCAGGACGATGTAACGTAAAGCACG" at or over 0.8 in terms of PBM binding z-score?
A. Condition met

Q. # bool: PBM binding z-score of "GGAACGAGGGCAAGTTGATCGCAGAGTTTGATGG" >= 0.8
A. Condition not met

Q. Is the recorded value of PBM binding z-score equal to or greater than 0.8 for this sequence? "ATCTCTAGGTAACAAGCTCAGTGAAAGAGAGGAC"
A. Condition not met

Q. Check if PBM binding z-score >= 0.8 (inclusive). Item: "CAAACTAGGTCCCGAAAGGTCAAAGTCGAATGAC"
A. Condition met

Q. Determine whether this sequence has PBM binding z-score no lower than 0.8: "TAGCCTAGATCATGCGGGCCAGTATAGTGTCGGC"
A. Condition not met

Q. Hi team, for "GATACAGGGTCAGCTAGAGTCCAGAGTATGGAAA" , is the recorded PBM binding z-score at or above 0.8?
A. Condition met

Q. Determine whether measured PBM binding z-score meets or exceeds 0.8 for "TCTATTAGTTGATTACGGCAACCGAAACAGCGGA"
A. Condition not met

Q. Could you verify whether the entry "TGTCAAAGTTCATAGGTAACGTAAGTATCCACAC" shows PBM binding z-score of no less than 0.8?
A. Condition met

----------
What PBM binding z-score was measured for each of the following?
system: LXRa homodimer (NR concentration 270 nM); test: PBM binding z-score (relative to random genomic background probes); higher = stronger binding; sequences stand for … in GC…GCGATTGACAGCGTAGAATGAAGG

Documented PBM binding z-score of "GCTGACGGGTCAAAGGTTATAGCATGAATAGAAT" : 0.433

For this sequence ( "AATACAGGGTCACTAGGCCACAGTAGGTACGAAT" ), measured PBM binding z-score is 1.17

For reference, reported PBM binding z-score for "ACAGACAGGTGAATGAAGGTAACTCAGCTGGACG" stands at -0.43

PBM binding z-score reading for "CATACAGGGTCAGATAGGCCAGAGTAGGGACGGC" : 0.146

So for "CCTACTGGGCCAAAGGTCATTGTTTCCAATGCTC" , the logged PBM binding z-score turned out to be 4.83

Sure, the documented PBM binding z-score for "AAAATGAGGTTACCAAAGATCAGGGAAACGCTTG" is -0.0548

----------
Answer each item with its documented PBM binding z-score.
system: LXRa:RXRa (NR concentration 270 nM, RXRa partner concentration 90 nM); assay: PBM binding z-score (relative to random genomic background probes); higher = stronger binding; sequences stand for … in GC…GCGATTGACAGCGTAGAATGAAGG
Give your answer as a number; write no unit.

Short answer for "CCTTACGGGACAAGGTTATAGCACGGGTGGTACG" : PBM binding z-score was 0.693

Lookup result for "TCTGGGAGGACACGAAAGGTCAGAGCTCGACATC" ; measured PBM binding z-score: 4.18

Reported PBM binding z-score for "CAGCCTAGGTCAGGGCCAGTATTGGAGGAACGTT" was 0.996

// recorded PBM binding z-score for "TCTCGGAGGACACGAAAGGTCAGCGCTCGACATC" : 4.26

Please fill in: PBM binding z-score reported for "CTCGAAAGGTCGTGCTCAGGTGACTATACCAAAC" = 3.88

Lab note: measured PBM binding z-score of "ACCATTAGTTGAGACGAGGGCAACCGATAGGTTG" was 0.177

Record "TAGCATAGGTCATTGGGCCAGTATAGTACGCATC" . Reported PBM binding z-score: 5.02

GET /value?item= "CGTCCAAGGTCAATGCTAGGTAAGTGAAAGCATT" &field=PBM binding z-score returns 4.48

// sample "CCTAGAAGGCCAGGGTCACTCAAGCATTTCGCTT" , its PBM binding z-score was 1.79

According to the records, this sequence "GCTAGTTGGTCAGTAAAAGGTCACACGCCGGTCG" displays PBM binding z-score of 4.98
